experimental.protocol: Stability against DHP-I (mouse)
Assay type: in vitro ADME
condition.label: kidney dhp-i, 100 μg (potency)/ml, 37° C., pH 7.0, read-out: residue (%) of the carbapenem derivative
quantity.kind: remaining at 3 h (%)

>>> test_value("C[C@@H](O)[C@H]1C(=O)N2C(C(=O)O)=C(S[C@@H]3CN[C@H](C(=O)N(C)C)C3)[C@H](C)[C@H]12")
18
>>> test_value("C[C@@H](O)[C@H]1C(=O)N2C(C(=O)O)=C(SCCN=CN)C[C@H]12 [Compound A, Imipenem, reference compound]")
0.6
>>> test_value("CC(=N)N1CC[C@H](SC2=C(C(=O)O)N3C(=O)[C@H]([C@@H](C)O)[C@H]3C2)C1 [Compound B, Panipenem, reference compound]")
28
>>> test_value("C[C@@H](O)[C@H]1C(=O)N2C(C(=O)O)=C(S[C@@H]3CN[C@H](Cc4cn5c[n+](CC(N)=O)cc5s4)C3)[C@H](C)[C@H]12")
90
>>> test_value("C[C@@H](O)[C@H]1C(=O)N2C(C(=O)O)=C(S[C@@H]3CN[C@H](Cc4csc5cncn45)C3)[C@H](C)[C@H]12")
97

###

As shown below, each of these molecules has a reported MIC value.
System: E. cloacae G-0008
quantity.kind: MIC (µg/mL)

>>> test_value("C[C@@H](O)[C@H]1C(=O)N2C(C(=O)O)=C(S[C@@H]3CN[C@H](c4csc5c[n+](C)cn45)C3)[C@H](C)[C@H]12")
0.05
>>> test_value("C[C@@H](O)[C@H]1C(=O)N2C(C(=O)O)=C(S[C@@H]3CN[C@H](C(=O)NCc4n5ccsc5c[n+]4C)C3)[C@H](C)[C@H]12")
0.1
>>> test_value("C[C@@H](O)[C@H]1C(=O)N2C(C(=O)O)=C(S[C@@H]3CN[C@H](/C=C\\c4csc5cncn45)C3)[C@H](C)[C@H]12")
0.1
>>> test_value("C[C@@H](O)[C@H]1C(=O)N2C(C(=O)O)=C(S[C@@H]3CN[C@H](C(O)c4cn5c[n+](C)cc5s4)C3)[C@H](C)[C@H]12 (single isomer, unassigned)")
0.05
>>> test_value("Cc1n2cc(C[C@@H]3C[C@H](SC4=C(C(=O)O)N5C(=O)[C@H]([C@@H](C)O)[C@H]5[C@H]4C)CN3)sc2c[n+]1CCC(N)=O")
0.05
>>> test_value("C[C@@H](O)[C@H]1C(=O)N2C(C(=O)O)=C(S[C@@H]3CN[C@H](/C=C/c4cn5c[n+](CC(N)=O)cc5s4)C3)[C@H](C)[C@H]12 [Ex. 53A]")
0.1

###

A set of compounds tested on E. coli GN206, with measured MIC:
quantity.kind: MIC (µg/mL)

>>> test_value("C[C@@H](O)[C@H]1C(=O)N2C(C(=O)[O-])=C(S[C@@H]3CN[C@H](/C=C\\c4csc5c[n+](CCC(N)=O)cn45)C3)[C@H](C)[C@H]12")
0.1
>>> test_value("C[C@@H](O)[C@H]1C(=O)N2C(C(=O)O)=C(S[C@@H]3CN[C@H](c4csc5c[n+](C)cn45)C3)[C@H](C)[C@H]12")
0.05
>>> test_value("C[C@@H](O)[C@H]1C(=O)N2C(C(=O)O)=C(S[C@@H]3CN[C@H](/C=C\\c4cn5c[n+](CC(N)=O)cc5s4)C3)[C@H](C)[C@H]12 [Ex. 53B]")
0.05
